assayedSystem: T1, recombinant human domain 1-3His6 of the cation-independent mannose-6-phosphate receptor (human, UniProt P11717 41-467)
T1 construct: Biotinylated (NHS-PEG4-biotin) for BLI; Glycosylated; also called hDom1-3His6; hCI-M6PRD1-D3
assayProcedure: BLI at pH 7.4, 1st of 2 repeats
Procedure: For each of the 11 anti-CI-M6PR VHHs, a biolayer interferometry (BLI) experiment was performed in which the hDom₁₋₃His₆ was biotinylated and coupled to streptavidin biosensor tips. Afterwards, the tips were incubated with serially diluted VHHs during the association phase and dissociation was performed at pH 7.4. Similarly, dissociation was performed at pH 7.0, pH 6.0 and pH 5.0 as well after regeneration of the biosensor tips. […]
propertyName: kon (M⁻¹ s⁻¹)

anti-CI-M6PR VHH2 (VHH, His6-tagged; made in Pichia pastoris) VHH: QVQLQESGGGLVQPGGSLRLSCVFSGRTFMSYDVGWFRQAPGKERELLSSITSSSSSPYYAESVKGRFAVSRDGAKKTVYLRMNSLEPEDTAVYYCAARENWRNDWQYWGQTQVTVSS = 679000
anti-CI-M6PR VHH3 (VHH, His6-tagged; made in Pichia pastoris) VHH: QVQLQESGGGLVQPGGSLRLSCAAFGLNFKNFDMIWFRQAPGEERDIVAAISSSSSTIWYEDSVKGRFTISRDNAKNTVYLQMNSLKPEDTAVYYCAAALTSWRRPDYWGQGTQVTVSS = 853000
anti-CI-M6PR VHH7 (VHH, His6-tagged (Pichia pastoris)) VHH: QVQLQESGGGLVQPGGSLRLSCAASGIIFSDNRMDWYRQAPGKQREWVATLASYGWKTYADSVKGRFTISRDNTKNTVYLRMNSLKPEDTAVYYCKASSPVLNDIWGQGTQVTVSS = 924000
anti-CI-M6PR VHH5 (VHH, His6-tagged; made in Pichia pastoris, later also in E. coli WK6) VHH: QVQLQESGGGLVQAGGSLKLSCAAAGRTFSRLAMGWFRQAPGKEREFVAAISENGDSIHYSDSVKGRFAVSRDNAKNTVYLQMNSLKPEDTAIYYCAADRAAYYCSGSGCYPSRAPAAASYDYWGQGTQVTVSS = 1.37e+06
